Test system: HEK-293T
Test: Multiplex assay against HEK293T
Format: toxicity, cell-based
Details: human, 12 h, 1 µM, compound concentration 1 uM, replicate 2
Reported values of Total Cell Count for individual entries

{"Entry Smiles": "Cc1cc2c(cc1N1C(=O)c3cccc4c(CCCO)ccc(c34)C1=O)n(C)c(=O)n2C", "Total Cell Count": 170}
{"Entry Smiles": "CC(C)N1CCC(C)(C)c2cc(C#Cc3ccc(C(=O)O)cc3)ccc21", "Total Cell Count": 156}
{"Entry Smiles": "COc1cc(N2CCC(N(C)C)CC2)ccc1Nc1ncc(Cl)c(Nc2ccccc2P(C)(C)=O)n1", "Total Cell Count": 1309}
{"Entry Smiles": "CNc1oc(-c2cccc3ccccc23)nc1C#N", "Total Cell Count": 270}
{"Entry Smiles": "CCCn1c(=O)c2[nH]c(C34CC5CC(CC3C5)C4)nc2n(CCC)c1=O", "Total Cell Count": 185}

---

Test system: U2OS
Assay: Multiplex assay against U2OS
Assay type: toxicity, cell-based
Conditions: human, 12 h, 1 µM, compound concentration 1 uM, replicate 2
Listed here are molecules together with their documented Population Membrane Permeable-Phenotype (%).
Observable: Population Membrane Permeable-Phenotype (%)

{"Molecule": "CC(=O)c1cc(-c2cc(C(=O)NC3CC3)ccc2C)c2ncccn12", "Measurement Target": "U2OS", "Numeric Result": 2}
{"Molecule": "CCOc1cc2ncc(C#N)c(Nc3ccc(OCc4cccc(F)c4)c(Cl)c3)c2cc1NC(=O)/C=C/CN(C)C [HKI-357]", "Measurement Target": "U2OS", "Numeric Result": 19}
{"Molecule": "Cc1nc(Cc2cccc(C(F)(F)F)c2)sc1-c1ccc(C(N)=O)nc1 [TP-024n]", "Measurement Target": "U2OS", "Numeric Result": 2}
{"Molecule": "Cc1cc2c(cc1N1C(=O)c3cccc4c(CCCO)ccc(c34)C1=O)n(C)c(=O)n2C", "Measurement Target": "U2OS", "Numeric Result": 1}
{"Molecule": "Nc1nc2c(c(N3CCNCC3)n1)CCC1=C2[C@@H]2CCCC[C@@H]2O1", "Measurement Target": "U2OS", "Numeric Result": 8}
{"Molecule": "CN(C)CCOc1ccc(-c2nc(-c3ccncc3)c(-c3ccc4c(c3)CC/C4=N\\O)[nH]2)cc1 [SB590885]", "Measurement Target": "U2OS", "Numeric Result": 38}
{"Molecule": "CNC(=O)c1nn(C)c2c1C(C)(C)Cc1cnc(Nc3ccc(N4CCN(C)CC4)cc3)nc1-2 [MILCICLIB]", "Measurement Target": "U2OS", "Numeric Result": 12}
{"Molecule": "CCn1c(-c2nonc2N)nc2cnc(Oc3cccc(NC(=O)c4ccc(OCCN5CCOCC5)cc4)c3)cc21 [GSK-269962A]", "Measurement Target": "U2OS", "Numeric Result": 14}
{"Molecule": "COc1cc2c(Nc3ccc(NC(=O)c4ccccc4)cc3)ncnc2cc1OCCCN1CCOCC1", "Measurement Target": "U2OS", "Numeric Result": 67}

---

Examples of compounds with documented Population Apoptotic (%) follow.
Test system: U2OS
Experiment: Multiplex assay against U2OS
Type: toxicity, cell-based
Settings: human, 12 h, 1 µM, compound concentration 1 uM, replicate 1
Observable: Population Apoptotic (%)

{"Compound": "CNc1oc(-c2cccc3ccccc23)nc1C#N", "Numeric Result": 36}
{"Compound": "N#Cc1cnc(Nc2cc(NC[C@H]3CNCCO3)c(C(F)(F)F)cn2)cn1", "Numeric Result": 18}
{"Compound": "CN(C)C/C=C/C(=O)Nc1cc2c(Nc3ccc(F)c(Cl)c3)ncnc2cc1O[C@H]1CCOC1.O=C(O)/C=C\\C(=O)O.O=C(O)/C=C\\C(=O)O [AFATINIB DIMALEATE]", "Numeric Result": 56}
{"Compound": "Cc1nc(Cc2cccc(C(F)(F)F)c2)sc1-c1ccc(C(N)=O)nc1 [TP-024n]", "Numeric Result": 58}
{"Compound": "CCCn1c(=O)c2[nH]c(C34CC5CC(CC3C5)C4)nc2n(CCC)c1=O", "Numeric Result": 50}
{"Compound": "Nc1ccc(C(=O)Nc2cccc(-c3nc(N4CCOCC4)c4oc5ncccc5c4n3)c2)cn1", "Numeric Result": 42}
{"Compound": "CC(C)Oc1ccc(C(=O)N[C@H](CNC(=O)CN(C)C)Cc2ccc(-c3cn4cccc([C@H](C)O)c4n3)cc2)cc1Cl [GSK-923295A]", "Numeric Result": 27}
{"Compound": "CC(C)N1CCC(C)(C)c2cc(C#Cc3ccc(C(=O)O)cc3)ccc21", "Numeric Result": 30}
